Recorded pIC50 values for a group of molecules are listed next.
# system_under_test: TLR7/NFKb HEK cells (Homo sapiens, UniProt Q9NYK1)
# Construct: expressed in transfected cells; host or cells: HEK cells (TLR7/NFKb reporter line)
# Sequence (Q9NYK1 27-1049): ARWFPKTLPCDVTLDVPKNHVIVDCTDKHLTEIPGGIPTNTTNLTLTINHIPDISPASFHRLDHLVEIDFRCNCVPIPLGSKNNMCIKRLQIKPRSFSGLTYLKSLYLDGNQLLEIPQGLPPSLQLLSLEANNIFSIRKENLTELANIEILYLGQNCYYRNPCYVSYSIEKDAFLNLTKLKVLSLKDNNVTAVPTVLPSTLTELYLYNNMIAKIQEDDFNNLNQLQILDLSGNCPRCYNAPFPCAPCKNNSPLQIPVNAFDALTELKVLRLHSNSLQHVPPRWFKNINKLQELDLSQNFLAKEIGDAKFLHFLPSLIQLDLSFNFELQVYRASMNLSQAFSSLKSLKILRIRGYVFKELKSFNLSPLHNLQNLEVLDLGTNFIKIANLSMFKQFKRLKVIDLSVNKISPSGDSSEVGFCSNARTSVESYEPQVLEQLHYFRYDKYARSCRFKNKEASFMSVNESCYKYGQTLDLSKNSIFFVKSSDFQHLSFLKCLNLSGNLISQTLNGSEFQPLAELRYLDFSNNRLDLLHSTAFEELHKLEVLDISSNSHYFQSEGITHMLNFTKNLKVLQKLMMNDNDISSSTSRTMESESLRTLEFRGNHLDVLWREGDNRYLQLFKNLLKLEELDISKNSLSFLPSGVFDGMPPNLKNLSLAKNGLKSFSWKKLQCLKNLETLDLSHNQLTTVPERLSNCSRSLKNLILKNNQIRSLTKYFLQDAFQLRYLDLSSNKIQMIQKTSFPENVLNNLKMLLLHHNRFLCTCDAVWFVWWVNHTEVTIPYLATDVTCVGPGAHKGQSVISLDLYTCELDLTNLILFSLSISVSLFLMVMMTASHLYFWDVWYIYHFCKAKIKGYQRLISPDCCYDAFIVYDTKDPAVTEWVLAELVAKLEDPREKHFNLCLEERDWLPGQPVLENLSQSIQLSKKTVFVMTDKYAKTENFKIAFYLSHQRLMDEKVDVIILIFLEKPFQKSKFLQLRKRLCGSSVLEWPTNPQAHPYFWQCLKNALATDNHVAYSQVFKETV
# assay_method_text: HEK Cell Assay (TLR7/NFKb reporter, Steady-Glo luciferase readout)
# Type: cell-based
# condition_label: 30 min compound preincubation, then R*48 agonist for 5 hours, read-out: Potency
# Description: Example 142: HEK Cell Assay Into 384 CulturePlates (Corning 3707) was placed 5000 c/w of TLR7/NFKb HEK cells in 30 uL DMEM without Phenil red (gibco #31053) and 10% i.a. FCS and 2 mM L-ZGLutamin. The cells were incubated for 24 h at 37° C., 10% carbon dioxide and 90% relative humidity. […] The assay plate was allowed to sit for 30 min at room temperature and then the plate was read on EnVision.
pIC50: −log10 of the molar value. Structures can show the parent of a compound that is named as a salt.

Before answering, review these 3 worked examples.
> print(dat)
                                   molecule        result
1  C[C@H]1C[C@@H](NC(=O)COCC2CCCO2)CN(c2ccc(C#N)c3nccnc23)C1 (stereo partly drawn) [Compound 166]        > 6.00
2  Cc1ncc(N2C[C@@H](C)C[C@@H](NC(=O)[C@H](N)C3CC3)C2)c2cccnc12 [Compound 561]        > 6.00
3  C[C@H]1C[C@@H](NCC(=O)O)CN(c2ccc(C(F)(F)F)c3ncccc23)C1 [Compound 571]  5.00 to 6.00

What pIC50 value was documented for this molecule, C[C@H]1C[C@@H](NC(=O)C(N)C(F)(F)F)CN(c2c(F)cc(C#N)c3nccnc23)C1 (single isomer, unassigned) [Compound 346] ?
< 5.00

Give the measured pIC50 of C[C@H]1C[C@@H](NC(=O)Cn2cccn2)CN(c2ccnc3nccnc23)C1 [Compound 170] .
< 5.00

Would you mind telling me what pIC50 value was observed for N#Cc1ccc(N2CC(NC(=O)C(N)C(F)(F)F)CC(C3CC3)C2)c2nccnc12 (single isomer, unassigned) [Compound 177] ?
5.00 to 6.00

pIC50 for CCN(CC)CCNCC1CCN(c2cc(C)nc3cc(F)ccc23)CC1 [Compound 386] ?
5.00 to 6.00

Quick one: pIC50 for C[C@H]1C[C@@H](NC(=O)CC2CNC2)CN(c2ccc(C#N)c3nccnc23)C1 [Compound 274] ?
> 6.00

Entry C[C@H]1C[C@@H](NC2CCC(O)CC2)CN(c2ccc(C#N)c3nccnc23)C1 (single isomer, unassigned) [Compound 136] : reported pIC50 = ?
> 6.00

Can you share its pIC50? I mean this molecule: N#Cc1ccc(N2C[C@@H](NC(=O)CO)C[C@@H](C(F)(F)F)C2)c2nccnc12 (relative stereo) [Compound 223]
5.00 to 6.00

Query: pIC50; subject: C[C@H]1C[C@@H](NC(=O)CN)CN(c2ccc(C#N)c3nccnc23)C1 [Compound 35, hydrochloride]
> 6.00

Data request, read-out pIC50, for CN1CCCC1C(=O)NCC1CCN(c2ccc(C#N)c3ncccc23)CC1 (stereo not drawn) [Compound 418]
> 6.00

State the recorded pIC50 for this entry: COc1ccc(N2C[C@@H](C)C[C@@H](NC(=O)CC(C)(C)C)C2)c2cccnc12 [Compound 189]
5.00 to 6.00

Entry Cc1ncc(N2C[C@@H](C)C[C@@H](NC(=O)CC(C)(C)O)C2)c2cccnc12 [Compound 555] : reported pIC50 = ?
5.00 to 6.00

Tell me the measured pIC50 of COc1ccc(N2C[C@@H](C)C[C@@H](NC(=O)CC(C)(C)C)C2)c2nccnc12 [Compound 202] , please.
5.00 to 6.00

Query (molecule): C[C@H]1C[C@@H](NC(=O)CC2CCCN(C)C2)CN(c2ccc(C(F)(F)F)c3ncccc23)C1 (stereo partly drawn) [Compound 279] ; field requested: pIC50
> 6.00

// pIC50 lookup, key: CC(C)[C@@H](O)C(=O)N[C@@H]1C[C@H](C)CN(c2ccnc3nccnc23)C1 [Compound 23]
< 5.00

Would you mind telling me what pIC50 value was observed for Cc1ncc(N2C[C@@H](C)C[C@@H](NC(=O)CCC(=O)N3CCC3)C2)c2cccnc12 [Compound 566] ?
5.00 to 6.00
